- ASSAY TARGET: Human TRPML1 (Homo sapiens, UniProt Q9GZU1, L15A/L16A/L577A/L578A)
- Sequence (Q9GZU1 whole entry L15A/L16A/L577A/L578A): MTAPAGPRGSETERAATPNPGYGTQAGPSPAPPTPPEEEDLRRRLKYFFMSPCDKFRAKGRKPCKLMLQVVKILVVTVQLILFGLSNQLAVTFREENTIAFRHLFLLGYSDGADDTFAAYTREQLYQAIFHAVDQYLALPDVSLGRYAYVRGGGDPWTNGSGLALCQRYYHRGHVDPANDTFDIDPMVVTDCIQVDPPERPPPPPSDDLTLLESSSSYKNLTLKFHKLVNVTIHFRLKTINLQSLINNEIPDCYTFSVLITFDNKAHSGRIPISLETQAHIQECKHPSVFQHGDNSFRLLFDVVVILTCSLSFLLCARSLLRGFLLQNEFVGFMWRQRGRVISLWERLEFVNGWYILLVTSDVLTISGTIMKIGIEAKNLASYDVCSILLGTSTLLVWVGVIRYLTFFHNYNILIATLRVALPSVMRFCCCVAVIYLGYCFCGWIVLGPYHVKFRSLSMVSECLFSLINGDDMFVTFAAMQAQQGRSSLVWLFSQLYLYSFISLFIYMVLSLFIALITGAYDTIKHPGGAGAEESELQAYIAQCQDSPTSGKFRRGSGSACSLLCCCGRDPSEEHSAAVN
- TEST NAME: Fluorescent TRPML1 assay (Fluo4-AM, HEK-293 Trex cells expressing hTRPML1)
- CONDITIONS: fluorescent calcium assay, doxycycline-induced hTRPML1
MEASURED PROPERTY: EC50

Illustrative cases are given below, each with its answer.
{"columns": ["SMILES RECORD", "EC50"],
 "data": [
  ["C[C@@H]1CN(c2ncnc3c2c(-c2ccncc2)cn3-c2cccc(OC(F)(F)F)c2)[C@@H](C)CN1C(=O)C(C)(C)O", "0.5 to 2 µM"],
  ["CCOC(C)(C)C(=O)N1C[C@H](C)N(c2ncnc3c2c(N2CCC2)cn3-c2cc(C#N)ccn2)C[C@H]1C", "< 0.1 µM"],
  ["CC[C@H]1CN(C(=O)C(C)(C)O)CCN1c1ncnc2c1c(-c1ccccc1)cn2-c1cc(C#N)ccn1", "0.1 to 0.5 µM"]
]}

Read the next record carefully.
-- ask Value wanted: EC50 (Human TRPML1 (Homo sapiens, UniProt Q9GZU1, L15A/L16A/L577A/L578A)) of entry C[C@@H]1CN(c2ncnc3c2c(-c2ccncc2)cn3-c2cc(F)cc(F)c2)[C@@H](C)CN1C(=O)C(C)(C)O
-- reply > 2 µM
